In this section we review reported pIC50 values for a set of molecules.
# system_under_test: Polyunsaturated fatty acid 5-lipoxygenase (Homo sapiens)
# Sequence (P09917 whole entry): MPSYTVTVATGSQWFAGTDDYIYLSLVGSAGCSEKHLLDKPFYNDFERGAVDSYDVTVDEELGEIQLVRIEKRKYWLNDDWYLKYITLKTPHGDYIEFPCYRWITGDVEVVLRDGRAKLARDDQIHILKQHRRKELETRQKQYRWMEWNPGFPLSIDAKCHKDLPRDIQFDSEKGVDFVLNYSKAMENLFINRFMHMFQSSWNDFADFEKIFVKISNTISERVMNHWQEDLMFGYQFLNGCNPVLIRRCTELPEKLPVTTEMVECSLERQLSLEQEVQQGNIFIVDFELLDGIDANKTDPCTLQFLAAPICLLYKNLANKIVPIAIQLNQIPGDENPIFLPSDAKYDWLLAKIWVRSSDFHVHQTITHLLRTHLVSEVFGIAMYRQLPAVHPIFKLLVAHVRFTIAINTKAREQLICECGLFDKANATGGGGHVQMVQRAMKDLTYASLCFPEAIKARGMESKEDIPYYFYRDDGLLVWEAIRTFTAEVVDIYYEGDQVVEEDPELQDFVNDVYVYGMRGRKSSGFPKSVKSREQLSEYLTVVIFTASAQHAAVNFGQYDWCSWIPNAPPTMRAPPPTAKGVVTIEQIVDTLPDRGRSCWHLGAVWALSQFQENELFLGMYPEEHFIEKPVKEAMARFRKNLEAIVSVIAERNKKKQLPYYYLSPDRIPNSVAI
# assay_procedure: Inhibition of human recombinant 5-LO expressed in Escherichia coli BL21 using arachidonic acid as substrate preincubated for 10 mins followed by substrate addition and measured after 10 mins by RP-HPLC analysis
The scale used: pIC50 is minus the common logarithm of the concentration in molar units.

> print(dat)
                                  structure  number
1  Cc1cc(C(=O)Nc2nnc(-c3ccc(-c4ccccc4N)cc3)s2)cc(Cl)n1    4.37

Sample Nc1ccccc1-c1ccc(-c2nnc(NC(=O)c3ccccc3Br)s2)cc1 ; pIC50 observed: 4.61

* * *

# Test system: Macrophage
# assay_procedure: Inhibition of 5-LO product formation in Staphylococcus aureus activated human monocyte derived macrophages at 10 uM preincubated for 15 mins followed by Staphylococcus aureus activation for 90 mins by UPLC-MS/MS analysis
# Format: functional, cell-based
# experimental_conditions: time 105.0 min
Calls of active or inactive are those of the source. The calls are words filed in the database; no cut-off is given here.
Hi there, use one of these labels in your reply, thanks! TRUE = active, FALSE = inactive

Example entries and their recorded answers appear below.
> print(dat)
                                  structure  answer.label
1  Nc1ccccc1-c1ccc(-c2nnc(NC(=O)c3c(Cl)ccnc3Cl)s2)cc1          TRUE
2  Cc1cc(C(=O)Nc2nnc(-c3ccc(-c4cccc(O)c4)cc3)s2)cc(Cl)n1         FALSE
3  Cc1cc(C(=O)Nc2nnc(-c3ccc(-c4ccccc4N)cc3)s2)cc(Cl)n1          TRUE

Hey, what did the test say about Nc1ccccc1-c1ccc(-c2nnc(NC(=O)c3ccccc3Br)s2)cc1 ? TRUE

Hey, what did the test say about O=C(Nc1nnc(-c2ccc(-c3cccc(O)c3)cc2)s1)c1ccccc1Br ? TRUE
